test system: OVCAR-4; experiment: Cytotoxicity against human OVCAR4 cells after 2 days by sulforhodamine B assay; format: functional; details: OVCAR-4, 48 h
Would you mind telling me the reported LC50 (concentration killing 50% of cells) of each entry?
Express it in µM; write the number only.

Q) # get_value(readout='LC50 (concentration killing 50% of cells)', item= CC/C(=C(/c1ccc(OCCN(C)C)cc1)c1ccc(OC(=O)CCC(=O)C2=C(C)/C(=C/c3[nH]c(-c4ccc[nH]4)cc3OC)N=C2C)cc1)c1ccccc1 )
A) 61.5

Q) Which LC50 (concentration killing 50% of cells) reading was recorded for the molecule CCC(=C(c1ccc(OCCN(C)C)cc1)c1ccc(OC(=O)CCCCC(=O)C2=C(C)/C(=C/c3[nH]c(-c4ccc[nH]4)cc3OC)N=C2C)cc1)c1ccccc1 ?
A) 70.8

###

test system: KM12; test: Cytotoxicity against human KM12 cells after 2 days by sulforhodamine B assay; assay type: functional; conditions: KM12, 48 h
VALUE_KIND: TGI (µM)
Numeric only. Scale: µM

Q) Need TGI, item CC/C(=C(/c1ccc(OCCN(C)C)cc1)c1ccc(OC(=O)CCC(=O)C2=C(C)/C(=C/c3[nH]c(-c4ccc[nH]4)cc3OC)N=C2C)cc1)c1ccccc1
A) 10.8

Q) Endpoint output: TGI of CCC(=C(c1ccc(OCCN(C)C)cc1)c1ccc(OC(=O)CCCCC(=O)C2=C(C)/C(=C/c3[nH]c(-c4ccc[nH]4)cc3OC)N=C2C)cc1)c1ccccc1 . Value?
A) 14.4

###

system: SF-539; assay: Cytotoxicity against human SF539 cells after 2 days by sulforhodamine B assay; assay type: functional; settings: SF-539, 48 h
VALUE_KIND: TGI (µM)
# number only, unit µM dropped from output

Q) Lab request: please report TGI under test system SF-539 for CC/C(=C(/c1ccc(OCCN(C)C)cc1)c1ccc(OC(=O)CCCCCCCCC(=O)C2=C(C)/C(=C/c3[nH]c(-c4ccc[nH]4)cc3OC)N=C2C)cc1)c1ccccc1
A) 50.1

Q) Field: TGI (SF-539). Entry: CCC(=C(c1ccc(OCCN(C)C)cc1)c1ccc(OC(=O)CCCCC(=O)C2=C(C)/C(=C/c3[nH]c(-c4ccc[nH]4)cc3OC)N=C2C)cc1)c1ccccc1
A) 27.5

Q) Find the measured TGI: item CC/C(=C(/c1ccc(OCCN(C)C)cc1)c1ccc(OC(=O)CCC(=O)C2=C(C)/C(=C/c3[nH]c(-c4ccc[nH]4)cc3OC)N=C2C)cc1)c1ccccc1 , target or system SF-539.
A) 9.55

###

Provide the recorded TGI for the entries that follow.
system: NCI-H322M; test: Cytotoxicity against human NCI-H322M cells after 2 days by sulforhodamine B assay; assay type: functional; conditions: 48 h
Response body: numeric value in µM, unit text excluded.

Q) If you can, please state the reported TGI value of CC/C(=C(/c1ccc(OCCN(C)C)cc1)c1ccc(OC(=O)CCC(=O)C2=C(C)/C(=C/c3[nH]c(-c4ccc[nH]4)cc3OC)N=C2C)cc1)c1ccccc1 .
A) 25.7

Q) Query (compound): CCC(=C(c1ccc(OCCN(C)C)cc1)c1ccc(OC(=O)CCCCC(=O)C2=C(C)/C(=C/c3[nH]c(-c4ccc[nH]4)cc3OC)N=C2C)cc1)c1ccccc1 ; field requested: TGI
A) 30.9

###

system: SK-MEL-28; test: Cytotoxicity against human SK-MEL-28 cells after 2 days by sulforhodamine B assay; assay type: functional; conditions: SK-MEL-28, 48 h
VALUE_KIND: TGI (µM)
Please give a number only; it is taken to be in µM.

Q) What does the data say about its TGI? Entry: CCC(=C(c1ccc(OCCN(C)C)cc1)c1ccc(OC(=O)CCCCC(=O)C2=C(C)/C(=C/c3[nH]c(-c4ccc[nH]4)cc3OC)N=C2C)cc1)c1ccccc1
A) 24

Q) Data request, read-out TGI, for CC/C(=C(/c1ccc(OCCN(C)C)cc1)c1ccc(OC(=O)CCC(=O)C2=C(C)/C(=C/c3[nH]c(-c4ccc[nH]4)cc3OC)N=C2C)cc1)c1ccccc1
A) 12.7

###

tested on: SK-MEL-2; test: Cytotoxicity against human SK-MEL-2 cells after 2 days by sulforhodamine B assay; assay type: functional; conditions: SK-MEL-2, 48 h
Assign GI50 to each entry below.
The reply should contain only the number, in µM.

Q) Which GI50 value is on record for COc1cc(-c2ccc[nH]2)[nH]c1/C=C1\N=C(C)C(C(=O)CCC(=O)Oc2ccc3c(c2)CC[C@@H]2[C@@H]3CC[C@]3(C)C(=O)CC[C@@H]23)=C1C ?
A) 15.6

Q) Which GI50 value is on record for CC/C(=C(/c1ccc(OCCN(C)C)cc1)c1ccc(OC(=O)CCC(=O)C2=C(C)/C(=C/c3[nH]c(-c4ccc[nH]4)cc3OC)N=C2C)cc1)c1ccccc1 ?
A) 2.45

Q) # lookup: GI50 of CCC(=C(c1ccc(OCCN(C)C)cc1)c1ccc(OC(=O)CCCCC(=O)C2=C(C)/C(=C/c3[nH]c(-c4ccc[nH]4)cc3OC)N=C2C)cc1)c1ccccc1
A) 16.6

Q) Look at this molecule and give its reported GI50. CC/C(=C(/c1ccc(OCCN(C)C)cc1)c1ccc(OC(=O)CCCCCCCCC(=O)C2=C(C)/C(=C/c3[nH]c(-c4ccc[nH]4)cc3OC)N=C2C)cc1)c1ccccc1
A) 30.9

###

system: SK-OV-3; assay: Cytotoxicity against human SKOV3 cells after 2 days by sulforhodamine B assay; assay type: functional; details: SK-OV-3, 48 h
Hi there, I'd appreciate the recorded TGI for every entry that follows.
Quick reminder: number only, in µM, skip the unit.

Q) What does the data say about its TGI? Entry: CC/C(=C(/c1ccc(OCCN(C)C)cc1)c1ccc(OC(=O)CCC(=O)C2=C(C)/C(=C/c3[nH]c(-c4ccc[nH]4)cc3OC)N=C2C)cc1)c1ccccc1
A) 30.1

Q) Entry CCC(=C(c1ccc(OCCN(C)C)cc1)c1ccc(OC(=O)CCCCC(=O)C2=C(C)/C(=C/c3[nH]c(-c4ccc[nH]4)cc3OC)N=C2C)cc1)c1ccccc1 has what TGI?
A) 26.9

###

tested on: MCF7; experiment: Cytotoxicity against human MCF7 cells after 2 days by sulforhodamine B assay; format: functional; settings: MCF7, 48 h
VALUE_KIND: TGI

Q) Report TGI for COc1cc(-c2ccc[nH]2)[nH]c1/C=C1\N=C(C)C(C(=O)CCC(=O)Oc2ccc3c(c2)CC[C@@H]2[C@@H]3CC[C@]3(C)C(=O)CC[C@@H]23)=C1C tested on MCF7.
A) > 100000 nM

Q) # returns recorded TGI (system: MCF7) for CC/C(=C(/c1ccc(OCCN(C)C)cc1)c1ccc(OC(=O)CCC(=O)C2=C(C)/C(=C/c3[nH]c(-c4ccc[nH]4)cc3OC)N=C2C)cc1)c1ccccc1
A) 2810 nM

Q) Return TGI measured with MCF7 given this compound: CC/C(=C(/c1ccc(OCCN(C)C)cc1)c1ccc(OC(=O)CCCCCCCCC(=O)C2=C(C)/C(=C/c3[nH]c(-c4ccc[nH]4)cc3OC)N=C2C)cc1)c1ccccc1
A) 11000 nM

Q) Param readout= TGI; system= MCF7; entry= CCC(=C(c1ccc(OCCN(C)C)cc1)c1ccc(OC(=O)CCCCC(=O)C2=C(C)/C(=C/c3[nH]c(-c4ccc[nH]4)cc3OC)N=C2C)cc1)c1ccccc1 ; returns value.
A) 1200 nM

###

tested on: SW-620; assay: Cytotoxicity against human SW620 cells after 2 days by sulforhodamine B assay; type: functional; conditions: SW-620, 48 h
VALUE_KIND: TGI (µM)
Supply the numeric figure in µM, leaving out any unit text.

Q) TGI for CC/C(=C(/c1ccc(OCCN(C)C)cc1)c1ccc(OC(=O)CCC(=O)C2=C(C)/C(=C/c3[nH]c(-c4ccc[nH]4)cc3OC)N=C2C)cc1)c1ccccc1 ?
A) 2.6

Q) Fill in the blank: the reported TGI of CCC(=C(c1ccc(OCCN(C)C)cc1)c1ccc(OC(=O)CCCCC(=O)C2=C(C)/C(=C/c3[nH]c(-c4ccc[nH]4)cc3OC)N=C2C)cc1)c1ccccc1 is ____.
A) 11.5

Q) May I ask what TGI has been recorded for CC/C(=C(/c1ccc(OCCN(C)C)cc1)c1ccc(OC(=O)CCCCCCCCC(=O)C2=C(C)/C(=C/c3[nH]c(-c4ccc[nH]4)cc3OC)N=C2C)cc1)c1ccccc1 ?
A) 14.1
